test system: 266295-075-R-J1-PDC spheroid viability; assay: Anticancer human tumor 266295-075-R-J1-PDC patient-derived head and neck squamous carcinoma cell line growth inhibition [POLQ]; settings: second compound 0.316 µM; first compound 0.0316 µM; stronger effect = lower value; spheroids with HUVEC and MSC;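 note: spheroids exposed to compounds for seven days before readout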
Reported metric: viability, T/C (%)
Give bare numbers, in %.

* COc1cc(C2c3cc4c(cc3C(OC3OC5COC(C)OC5C(O)C3O)C3COC(=O)C23)OCO4)cc(OC)c1O (stereo not given) + COC1C(OC(N)=O)C(O)C(Oc2ccc3c(O)c(NC(=O)c4ccc(O)c(CC=C(C)C)c4)c(=O)oc3c2C)OC1(C)C | 90.1

// for each compound in input: emit viability, T/C
1. C=CC(=O)N1CCN(c2nc(=O)n(-c3c(C)ccnc3C(C)C)c3nc(-c4c(O)cccc4F)c(F)cc23)C(C)C1 (stereo not given) + COC1C(OC(N)=O)C(O)C(Oc2ccc3c(O)c(NC(=O)c4ccc(O)c(CC=C(C)C)c4)c(=O)oc3c2C)OC1(C)C
2. O=c1[nH]cc(F)c(=O)[nH]1 + Nc1ccc(C#CCN(C(=O)Cc2ncc(C(F)(F)F)cc2C(F)(F)F)c2ccc(F)cc2)nn1
3. CNCc1ccc(-c2[nH]c3cc(F)cc4c3c2CCNC4=O)cc1 + COC1C(OC(N)=O)C(O)C(Oc2ccc3c(O)c(NC(=O)c4ccc(O)c(CC=C(C)C)c4)c(=O)oc3c2C)OC1(C)C
4. COc1cccc2c1C(=O)c1c(O)c3c(c(O)c1C2=O)CC(O)(C(=O)CO)CC3OC1CC(N)C(O)C(C)O1 (stereo not given) + Nc1ccc(C#CCN(C(=O)Cc2ncc(C(F)(F)F)cc2C(F)(F)F)c2ccc(F)cc2)nn1
5. O=C(Nc1ccc(O)c(NS(=O)(=O)c2ccc(F)cc2)c1)c1ccc(-c2ccccc2)cc1 + Cc1cccc(N(C)C(=O)C2C(O)CCN2c2nc(C)cc(C(F)(F)F)c2C#N)c1
6. CC[C@@]1(O)C(=O)OCc2c1cc1n(c2=O)Cc2cc3c(CN(C)C)c(O)ccc3nc2-1 + Cc1cccc(N(C)C(=O)C2C(O)CCN2c2nc(C)cc(C(F)(F)F)c2C#N)c1
7. C#Cc1c(F)ccc2cc(O)cc(-c3ncc4c(N5CC6CCC(C5)N6)nc(OCC56CCCN5CC(F)C6)nc4c3F)c12 (stereo not given) + Cc1cccc(N(C)C(=O)C2C(O)CCN2c2nc(C)cc(C(F)(F)F)c2C#N)c1
8. C=CCn1c(=O)c2cnc(Nc3ccc(N4CCN(C)CC4)cc3)nc2n1-c1cccc(C(C)(C)O)n1 + Nc1ccc(C#CCN(C(=O)Cc2ncc(C(F)(F)F)cc2C(F)(F)F)c2ccc(F)cc2)nn1

1: 96.9; 2: 102; 3: 111; 4: 119; 5: 107; 6: 106; 7: 102; 8: 84.1

Respectfully, I request viability, T/C for each entry included below.
1. CC1COCCN1c1cc(C2(S(C)(=N)=O)CC2)nc(-c2ccnc3[nH]ccc23)n1 (stereo not given) + COC1C(OC(N)=O)C(O)C(Oc2ccc3c(O)c(NC(=O)c4ccc(O)c(CC=C(C)C)c4)c(=O)oc3c2C)OC1(C)C
2. O=C(c1cc(Cc2n[nH]c(=O)c3ccccc23)ccc1F)N1CCN(C(=O)C2CC2)CC1 + Nc1ccc(C#CCN(C(=O)Cc2ncc(C(F)(F)F)cc2C(F)(F)F)c2ccc(F)cc2)nn1

1: 89.2; 2: 124

Look up viability, T/C for the entries below, preserving their order.
1. COc1cc2cc(C(=O)CCC(=O)O)sc2cc1OC + COC1C(OC(N)=O)C(O)C(Oc2ccc3c(O)c(NC(=O)c4ccc(O)c(CC=C(C)C)c4)c(=O)oc3c2C)OC1(C)C
2. CC[C@@]1(O)C(=O)OCc2c1cc1n(c2=O)Cc2cc3c(CN(C)C)c(O)ccc3nc2-1 + COC1C(OC(N)=O)C(O)C(Oc2ccc3c(O)c(NC(=O)c4ccc(O)c(CC=C(C)C)c4)c(=O)oc3c2C)OC1(C)C
3. CC(C)n1c(=O)n(C)c2cnc3cc(F)c(-c4ccc(OCCCN5CCCCC5)nc4)cc3c21 + Nc1ccc(C#CCN(C(=O)Cc2ncc(C(F)(F)F)cc2C(F)(F)F)c2ccc(F)cc2)nn1
4. CNCc1ccc(-c2[nH]c3cc(F)cc4c3c2CCNC4=O)cc1 + Nc1ccc(C#CCN(C(=O)Cc2ncc(C(F)(F)F)cc2C(F)(F)F)c2ccc(F)cc2)nn1

1: 97.7; 2: 89.4; 3: 110; 4: 102

Consider the following items and state reported viability, T/C for each.
1. CCc1cc2c(N3CCc4c(cc(Cn5ccnc5)cc4-c4cn(C)nc4C(F)(F)F)C3=O)cc(C)nc2c(OC)n1 + Cc1cccc(N(C)C(=O)C2C(O)CCN2c2nc(C)cc(C(F)(F)F)c2C#N)c1
2. CCc1cc2c(N3CCc4c(cc(Cn5ccnc5)cc4-c4cn(C)nc4C(F)(F)F)C3=O)cc(C)nc2c(OC)n1 + Nc1ccc(C#CCN(C(=O)Cc2ncc(C(F)(F)F)cc2C(F)(F)F)c2ccc(F)cc2)nn1
3. O=C(c1cc(Cc2n[nH]c(=O)c3ccccc23)ccc1F)N1CCN(C(=O)C2CC2)CC1 + Cc1cccc(N(C)C(=O)C2C(O)CCN2c2nc(C)cc(C(F)(F)F)c2C#N)c1
4. COc1ccc([C@@H](O)c2cc(-c3ncnc4cc(N5CCOCC5)ccc34)c(F)cc2Cl)nn1 + COC1C(OC(N)=O)C(O)C(Oc2ccc3c(O)c(NC(=O)c4ccc(O)c(CC=C(C)C)c4)c(=O)oc3c2C)OC1(C)C
5. CC1COCCN1c1cc(-c2ccnn2C)c2ccnc(-c3ccn[nH]3)c2n1 (stereo not given) + COC1C(OC(N)=O)C(O)C(Oc2ccc3c(O)c(NC(=O)c4ccc(O)c(CC=C(C)C)c4)c(=O)oc3c2C)OC1(C)C

1: 97.7; 2: 102; 3: 86.6; 4: 104; 5: 89.9
